Listed below: MIC values for each entry.
Tested on: Staphylococcus aureus
Assay: Antibacterial activity against methicillin resistant Staphylococcus aureus isolate 4 after 18 hrs by microdilution method
Type: functional
Settings: isolate 4, 18 h

{"smiles repr": "CO[C@H]1/C=C/O[C@@]2(C)Oc3c(C)c(O)c4c(O)c(c(CN[C@@H](Cc5c[nH]c6ccccc56)C(=O)OCc5ccccc5)c(O)c4c3C2=O)NC(=O)/C(C)=C\\C=C\\[C@H](C)[C@H](O)[C@@H](C)[C@@H](O)[C@@H](C)[C@H](OC(C)=O)[C@@H]1C", "unit info": "µg/mL", "MIC": 1}
{"smiles repr": "COC(=O)[C@H](Cc1ccc(O)cc1)NCc1c2c(O)c3c(O)c(C)c4c(c3c1O)C(=O)[C@@](C)(O/C=C/[C@H](OC)[C@@H](C)[C@@H](OC(C)=O)[C@H](C)[C@H](O)[C@H](C)[C@@H](O)[C@@H](C)/C=C/C=C(/C)C(=O)N2)O4", "unit info": "µg/mL", "MIC": 0.5}
{"smiles repr": "CO[C@H]1/C=C/O[C@@]2(C)Oc3c(C)c(O)c4c(O)c(c(CN[C@@H](Cc5ccccc5)C(=O)OCc5ccccc5)c(O)c4c3C2=O)NC(=O)/C(C)=C\\C=C\\[C@H](C)[C@H](O)[C@@H](C)[C@@H](O)[C@@H](C)[C@H](OC(C)=O)[C@@H]1C", "unit info": "µg/mL", "MIC": 1}
{"smiles repr": "CCOC(=O)[C@H](Cc1ccc(O)cc1)NCc1c2c(O)c3c(O)c(C)c4c(c3c1O)C(=O)[C@@](C)(O/C=C/[C@H](OC)[C@@H](C)[C@@H](OC(C)=O)[C@H](C)[C@H](O)[C@H](C)[C@@H](O)[C@@H](C)/C=C/C=C(/C)C(=O)N2)O4", "unit info": "µg/mL", "MIC": 0.5}

###

Listed below: MIC values for each entry.
Tested on: Staphylococcus aureus
Test: Antibacterial activity against methicillin resistant Staphylococcus aureus isolate 4 after 18 hrs by microdilution method
Type: functional
Details: isolate 4, 18 h
test readout: MIC (µg/mL)

{"compound": "COC(=O)[C@H](Cc1c[nH]c2ccccc12)NCc1c2c(O)c3c(O)c(C)c4c(c3c1O)C(=O)[C@@](C)(O/C=C/[C@H](OC)[C@@H](C)[C@@H](OC(C)=O)[C@H](C)[C@H](O)[C@H](C)[C@@H](O)[C@@H](C)/C=C/C=C(/C)C(=O)N2)O4", "test readout": "MIC", "unit info": "µg/mL", "lt gt eq": "=", "test result": 0.063}
{"compound": "CO[C@H]1/C=C/O[C@@]2(C)Oc3c(C)c(O)c4c(O)c(c(C=O)c(O)c4c3C2=O)NC(=O)/C(C)=C\\C=C\\[C@H](C)[C@H](O)[C@@H](C)[C@@H](O)[C@@H](C)[C@H](OC(C)=O)[C@@H]1C", "test readout": "MIC", "unit info": "µg/mL", "lt gt eq": ">", "test result": 2}
{"compound": "CCOC(=O)[C@H](Cc1ccccc1)NCc1c2c(O)c3c(O)c(C)c4c(c3c1O)C(=O)[C@@](C)(O/C=C/[C@H](OC)[C@@H](C)[C@@H](OC(C)=O)[C@H](C)[C@H](O)[C@H](C)[C@@H](O)[C@@H](C)/C=C/C=C(/C)C(=O)N2)O4", "test readout": "MIC", "unit info": "µg/mL", "lt gt eq": "=", "test result": 0.125}
{"compound": "CO[C@H]1/C=C/O[C@@]2(C)Oc3c(C)c(O)c4c(O)c(c(/C=N/N5CCN(C)CC5)c(O)c4c3C2=O)NC(=O)/C(C)=C\\C=C\\[C@H](C)[C@H](O)[C@@H](C)[C@@H](O)[C@@H](C)[C@H](OC(C)=O)[C@@H]1C [RIFAMPIN]", "test readout": "MIC", "unit info": "µg/mL", "lt gt eq": "=", "test result": 0.016}
{"compound": "CO[C@H]1/C=C/O[C@@]2(C)Oc3c(C)c(O)c4c(O)c(c(CN[C@@H](Cc5ccccc5)C(=O)OC(C)(C)C)c(O)c4c3C2=O)NC(=O)/C(C)=C\\C=C\\[C@H](C)[C@H](O)[C@@H](C)[C@@H](O)[C@@H](C)[C@H](OC(C)=O)[C@@H]1C", "test readout": "MIC", "unit info": "µg/mL", "lt gt eq": "=", "test result": 0.5}
{"compound": "CCOC(=O)[C@H](Cc1c[nH]c2ccccc12)NCc1c2c(O)c3c(O)c(C)c4c(c3c1O)C(=O)[C@@](C)(O/C=C/[C@H](OC)[C@@H](C)[C@@H](OC(C)=O)[C@H](C)[C@H](O)[C@H](C)[C@@H](O)[C@@H](C)/C=C/C=C(/C)C(=O)N2)O4", "test readout": "MIC", "unit info": "µg/mL", "lt gt eq": "=", "test result": 0.5}
{"compound": "COC(=O)[C@H](Cc1ccccc1)NCc1c2c(O)c3c(O)c(C)c4c(c3c1O)C(=O)[C@@](C)(O/C=C/[C@H](OC)[C@@H](C)[C@@H](OC(C)=O)[C@H](C)[C@H](O)[C@H](C)[C@@H](O)[C@@H](C)/C=C/C=C(/C)C(=O)N2)O4", "test readout": "MIC", "unit info": "µg/mL", "lt gt eq": "=", "test result": 0.063}

###

System: Staphylococcus aureus
Assay: Antibacterial activity against Staphylococcus aureus ATCC 6538 after 18 hrs by microdilution method
Assay type: functional
Conditions: ATCC 6538, 18 h

{"smiles repr": "CO[C@H]1/C=C/O[C@@]2(C)Oc3c(C)c(O)c4c(O)c(c(CN[C@@H](Cc5ccccc5)C(=O)OCc5ccccc5)c(O)c4c3C2=O)NC(=O)/C(C)=C\\C=C\\[C@H](C)[C@H](O)[C@@H](C)[C@@H](O)[C@@H](C)[C@H](OC(C)=O)[C@@H]1C", "study system": "Staphylococcus aureus", "unit info": "µg/mL", "lt gt eq": "=", "MIC": 0.5}
{"smiles repr": "CCOC(=O)[C@H](Cc1c[nH]c2ccccc12)NCc1c2c(O)c3c(O)c(C)c4c(c3c1O)C(=O)[C@@](C)(O/C=C/[C@H](OC)[C@@H](C)[C@@H](OC(C)=O)[C@H](C)[C@H](O)[C@H](C)[C@@H](O)[C@@H](C)/C=C/C=C(/C)C(=O)N2)O4", "study system": "Staphylococcus aureus", "unit info": "µg/mL", "lt gt eq": "=", "MIC": 0.25}
{"smiles repr": "COC(=O)[C@H](Cc1ccc(O)cc1)NCc1c2c(O)c3c(O)c(C)c4c(c3c1O)C(=O)[C@@](C)(O/C=C/[C@H](OC)[C@@H](C)[C@@H](OC(C)=O)[C@H](C)[C@H](O)[C@H](C)[C@@H](O)[C@@H](C)/C=C/C=C(/C)C(=O)N2)O4", "study system": "Staphylococcus aureus", "unit info": "µg/mL", "lt gt eq": "=", "MIC": 0.5}
{"smiles repr": "COC(=O)[C@H](Cc1cnc[nH]1)NCc1c2c(O)c3c(O)c(C)c4c(c3c1O)C(=O)[C@@](C)(O/C=C/[C@H](OC)[C@@H](C)[C@@H](OC(C)=O)[C@H](C)[C@H](O)[C@H](C)[C@@H](O)[C@@H](C)/C=C/C=C(/C)C(=O)N2)O4", "study system": "Staphylococcus aureus", "unit info": "µg/mL", "lt gt eq": "=", "MIC": 0.25}
{"smiles repr": "CCOC(=O)[C@H](CCCNC(=N)N)NCc1c2c(O)c3c(O)c(C)c4c(c3c1O)C(=O)[C@@](C)(O/C=C/[C@H](OC)[C@@H](C)[C@@H](OC(C)=O)[C@H](C)[C@H](O)[C@H](C)[C@@H](O)[C@@H](C)/C=C/C=C(/C)C(=O)N2)O4", "study system": "Staphylococcus aureus", "unit info": "µg/mL", "lt gt eq": "=", "MIC": 1}
{"smiles repr": "CCOC(=O)[C@H](CCCCN)NCc1c2c(O)c3c(O)c(C)c4c(c3c1O)C(=O)[C@@](C)(O/C=C/[C@H](OC)[C@@H](C)[C@@H](OC(C)=O)[C@H](C)[C@H](O)[C@H](C)[C@@H](O)[C@@H](C)/C=C/C=C(/C)C(=O)N2)O4", "study system": "Staphylococcus aureus", "unit info": "µg/mL", "lt gt eq": "=", "MIC": 2}
{"smiles repr": "CCOC(=O)[C@H](Cc1ccccc1)NCc1c2c(O)c3c(O)c(C)c4c(c3c1O)C(=O)[C@@](C)(O/C=C/[C@H](OC)[C@@H](C)[C@@H](OC(C)=O)[C@H](C)[C@H](O)[C@H](C)[C@@H](O)[C@@H](C)/C=C/C=C(/C)C(=O)N2)O4", "study system": "Staphylococcus aureus", "unit info": "µg/mL", "lt gt eq": "=", "MIC": 0.063}
{"smiles repr": "COC(=O)[C@H](Cc1c[nH]c2ccccc12)NCc1c2c(O)c3c(O)c(C)c4c(c3c1O)C(=O)[C@@](C)(O/C=C/[C@H](OC)[C@@H](C)[C@@H](OC(C)=O)[C@H](C)[C@H](O)[C@H](C)[C@@H](O)[C@@H](C)/C=C/C=C(/C)C(=O)N2)O4", "study system": "Staphylococcus aureus", "unit info": "µg/mL", "lt gt eq": "=", "MIC": 0.031}
{"smiles repr": "CO[C@H]1/C=C/O[C@@]2(C)Oc3c(C)c(O)c4c(O)c(c(C=O)c(O)c4c3C2=O)NC(=O)/C(C)=C\\C=C\\[C@H](C)[C@H](O)[C@@H](C)[C@@H](O)[C@@H](C)[C@H](OC(C)=O)[C@@H]1C", "study system": "Staphylococcus aureus", "unit info": "µg/mL", "lt gt eq": ">", "MIC": 2}
{"smiles repr": "CO[C@H]1/C=C/O[C@@]2(C)Oc3c(C)c(O)c4c(O)c(c(CN[C@@H](Cc5ccccc5)C(=O)OC(C)(C)C)c(O)c4c3C2=O)NC(=O)/C(C)=C\\C=C\\[C@H](C)[C@H](O)[C@@H](C)[C@@H](O)[C@@H](C)[C@H](OC(C)=O)[C@@H]1C", "study system": "Staphylococcus aureus", "unit info": "µg/mL", "lt gt eq": "=", "MIC": 0.5}
